Provenance of the data: the supplement of paper PMC10567573

B1: MTMR15 (parent)
chain: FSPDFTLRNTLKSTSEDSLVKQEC

variants of: B1; experiment: protein stability index of a GFP-peptide fusion (GPS, HEK-293T) (PSI 1-6); higher = more stable; settings: c terminus: a fixed tail appended;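 note: lentivirally expressed fusions sorted by FACS into six bins by GFP to DsRed ratio, PSI derived from sequencing read proportions per bin multiplied by bin number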
Assign condition met whenever protein stability index does not fall below 2; assign condition not met whenever it does.

>>> print(df.to_string())
                      sequence_code     category_label
 0   FPPDFTLRNTLKSTSEDSLVKQEC [S2P]      condition met
 1  FSPDFTLRNTLKSTSEDSVVKQEC [L19V]  condition not met
 2   FSPDFMLRNTLKSTSEDSLVKQEC [T6M]  condition not met
 3   FSPDVTLRNTLKSTSEDSLVKQEC [F5V]      condition met
 4   FSPDFSLRNTLKSTSEDSLVKQEC [T6S]      condition met
 5   FSPMFTLRNTLKSTSEDSLVKQEC [D4M]  condition not met
 6   FSPAFTLRNTLKSTSEDSLVKQEC [D4A]      condition met
 7  FSPDFTLRNTLKSTSEDSLVKQEY [C24Y]      condition met
 8  FSPDFTLRNMLKSTSEDSLVKQEC [T10M]      condition met
 9   ISPDFTLRNTLKSTSEDSLVKQEC [F1I]      condition met
10  FSPDFTLRNTLKSTSEDSLVPQEC [K21P]  condition not met
11  FSPDFTLRNTLKSTSRDSLVKQEC [E16R]  condition not met
12  FSPDFTLRNTLKSTFEDSLVKQEC [S15F]      condition met
13   FSPDFTLRETLKSTSEDSLVKQEC [N9E]  condition not met
14   FSPDWTLRNTLKSTSEDSLVKQEC [F5W]      condition met
15  FSPDFTLRNTLKSTSMDSLVKQEC [E16M]      condition met
16   FSKDFTLRNTLKSTSEDSLVKQEC [P3K]      condition met
17  FSPDFTLRNTLKSTSEDSLVKQEK [C24K]  condition not met
18   FSYDFTLRNTLKSTSEDSLVKQEC [P3Y]      condition met
19  FSPDFTLRNTLKSTSSDSLVKQEC [E16S]      condition met
20   FSPDFTLCNTLKSTSEDSLVKQEC [R8C]      condition met
21  FSPDFTLRNILKSTSEDSLVKQEC [T10I]      condition met
22  FSPDFTLRNTLKSTSEDSLVYQEC [K21Y]      condition met
23  FSPDFTLRNVLKSTSEDSLVKQEC [T10V]  condition not met
24   FSPDQTLRNTLKSTSEDSLVKQEC [F5Q]      condition met
25  FSPDFTLRNTLPSTSEDSLVKQEC [K12P]  condition not met
26  FSPDFTLRNCLKSTSEDSLVKQEC [T10C]      condition met
27  FSPDFTLRNTLKSTSEDALVKQEC [S18A]  condition not met
28   FSPDFTLRFTLKSTSEDSLVKQEC [N9F]      condition met
29  FSPDFTLRNPLKSTSEDSLVKQEC [T10P]  condition not met
30   FSPDFTLLNTLKSTSEDSLVKQEC [R8L]      condition met
31  FSPDFTLRNTCKSTSEDSLVKQEC [L11C]      condition met
32  FSPDFTLRNTLKGTSEDSLVKQEC [S13G]  condition not met
33   FGPDFTLRNTLKSTSEDSLVKQEC [S2G]      condition met
34  FSPDFTLRNTLKSTSEDSLVKMEC [Q22M]  condition not met
35  FSPDFTLRNTLKSTSEDSLIKQEC [V20I]      condition met
36  FSPDFTLRNTLKSTSEPSLVKQEC [D17P]      condition met
37  FSPDFTLRNTLKWTSEDSLVKQEC [S13W]      condition met
38  FSPDFTLRNTLKSTSEDSLCKQEC [V20C]  condition not met
39  FSPDFTLRNTLLSTSEDSLVKQEC [K12L]      condition met
40  FSPDFTLRNTLKSTSEDRLVKQEC [S18R]      condition met
41   VSPDFTLRNTLKSTSEDSLVKQEC [F1V]      condition met
42  FSPDFTLRNTLKSTSEDSFVKQEC [L19F]      condition met
43  FSPDFTLRNTLKSTYEDSLVKQEC [S15Y]  condition not met
44   FSPDFTPRNTLKSTSEDSLVKQEC [L7P]      condition met
45  FSPDFTLRNTLRSTSEDSLVKQEC [K12R]  condition not met
46   FSPDTTLRNTLKSTSEDSLVKQEC [F5T]      condition met
47   FSCDFTLRNTLKSTSEDSLVKQEC [P3C]      condition met
48  FSPDFTLRNTLKSTSEDSLVKTEC [Q22T]      condition met
49   FHPDFTLRNTLKSTSEDSLVKQEC [S2H]      condition met
50  FSPDFTLRNTLKSTSEDSLVKQEI [C24I]  condition not met
51  FSPDFTLRNSLKSTSEDSLVKQEC [T10S]  condition not met
52  FSPDFTLRNTLKSTSEWSLVKQEC [D17W]      condition met
53   FSPDFTHRNTLKSTSEDSLVKQEC [L7H]      condition met
54  FSPDFTLRNTLKSTQEDSLVKQEC [S15Q]  condition not met
55  FSPDFTLRNTLKSTSPDSLVKQEC [E16P]      condition met
56  FSPDFTLRNTLASTSEDSLVKQEC [K12A]  condition not met
57   FSPDATLRNTLKSTSEDSLVKQEC [F5A]      condition met
58   FSPDFTLRGTLKSTSEDSLVKQEC [N9G]  condition not met
59  FSPDFTLRNTLKSTREDSLVKQEC [S15R]      condition met
